Tested on: Plasmodium berghei
Assay: Luciferase/luciferin-expressing antifolate-resistant parasites were used to infect a culture of HepG2 cells that were pre-incubated with compounds. Infected hepatocytes emit light due to the luciferase reaction. Assay results are presented as the percent inhibition of light emission compared to control. […]
Assay type: functional
Conditions: sporozoite, FFLUC_HILL_SLOPE 16.9, FFLUC_R_SQUARED 0.354, read-out: LUCIFERASE INFECTION ASSAY - IC50
pIC50: −log10 of the molar value.
assay.metric: pIC50

Summary for this molecule, CC(=O)c1ccc(NC(=O)c2nn(-c3ccccc3)c3c2C2CCC3(C)C2(C)C)cc1 (stereo unspecified) : pIC50 is < 5.00
